- Test system: NF-kB reporter in Jurkat cells
- assay explanation: NF-kB reporter assay in Jurkat cells stimulated with aCD3/aCD28/PMA
- Format: cell-based
- experimental parameters: Homo sapiens; Jurkat cells, 1 hr compound pre-incubation, aCD3/aCD28/PMA stimulation 4 hr, One-Glo readout; read-out: NF-kB Reporter Assay IC50
Provide the reported IC50 of each item.

// solved cases for IC50 follow
# compound, endpoint result
records = [
    ("CN1CC(c2ccnc(-n3cc(S(=O)(=O)Nc4cccc5cnn(C)c45)cn3)c2)C1 [Compound I-325]", "> 2500 nM"),
    ("CCC(CC)(OC)c1ccnc(-n2cc(S(=O)(=O)Nc3c(OC)ccc4cnn(C)c34)cn2)c1 [Compound I-299]", "400 to 1000 nM"),
    ("C[C@H]1CCN(c2ccnc(-n3cc(S(=O)(=O)Nc4cccc5cnn(C)c45)cn3)c2)C1 [Compound I-400]", "< 400 nM"),
    ("Cn1ncc2ccc(C3CC3)c(NS(=O)(=O)c3cnn(-c4ccc(C(F)(F)F)cn4)c3)c21 [Compound I-20]", "1000 to 2500 nM"),
    ("Cc1cnc(-n2cc(S(=O)(=O)Nc3cccc4cnn(C)c34)cn2)cc1C(F)(F)F [Compound I-117]", "< 400 nM"),
    ("Cn1ncc2cccc(NS(=O)(=O)c3cnn(-c4cc(C5(O)CCOC5)ccn4)c3)c21 (stereo in doubt) [Compound I-310]", "< 400 nM"),
]

Shifting focus to the compound that follows.
Ask | Look at this compound and give its reported IC50. CO[C@]1(c2ccnc(-n3cc(S(=O)(=O)Nc4cccc5cnn(C)c45)cn3)c2)CCOC1 [Compound I-306]
Reply | < 400 nM
